Sourced from patent US20160002204A1

Exercise: state measured pIC50 for each of the molecules provided.
Biological target: GLS1 (purified recombinant human GAC) (Homo sapiens)
Assay: GLS1 enzymatic activity assay (dual-coupled, Amplex UltraRed/resorufin)
pIC50: −log10 of the molar value.

Please review the entries below; each comes with its answer.
O=C(CC1CCCC1)Nc1ccn(CCC(F)Cn2cc(C(=O)NCc3ncccc3F)nn2)c(=O)c1F (stereo not shown) = > 7.00
Nc1ccn(CCC(F)Cn2cc(C(=O)NCc3cccc(OC(F)(F)F)c3)nn2)c(=O)c1F (stereo not shown) = 5.30 to 6.30
CO[C@@H](C(=O)Nc1ccn(CC(F)CCn2cc(C(=O)NCc3cccc(OC(F)(F)F)c3)nn2)c(=O)c1F)c1ccccc1 (stereo partly shown) = 5.30 to 6.30
O=C(Cc1ccccc1)Nc1ccn(CCCCc2nnc(NC(=O)NCc3ccccc3)s2)c(=O)c1F = > 7.00
COCCOc1cccc(CC(=O)Nc2ccn(CCC(F)Cn3cc(C(=O)NCc4cccc(OC(F)(F)F)c4)nn3)c(=O)c2)c1 (stereo not shown) = > 7.00

For every listed record, write down its pIC50.
1. O=C(NCc1cccc(OC(F)(F)F)c1)c1cn(CC(F)CCn2ccc(COc3ccccn3)cc2=O)nn1 (stereo not shown)
2. O=C(CC1CCC(O)CC1)Nc1ccn(CCCCn2cc(C(=O)NCc3cccc(OC(F)(F)F)c3)nn2)c(=O)c1 (stereo not shown)

Result:
["6.30 to 7.00", "> 7.00"]

###

Target: GLS1 (purified recombinant human GAC) (Homo sapiens, UniProt O94925)
Sequence (O94925 55-598 isoform O94925-3 limits assumed): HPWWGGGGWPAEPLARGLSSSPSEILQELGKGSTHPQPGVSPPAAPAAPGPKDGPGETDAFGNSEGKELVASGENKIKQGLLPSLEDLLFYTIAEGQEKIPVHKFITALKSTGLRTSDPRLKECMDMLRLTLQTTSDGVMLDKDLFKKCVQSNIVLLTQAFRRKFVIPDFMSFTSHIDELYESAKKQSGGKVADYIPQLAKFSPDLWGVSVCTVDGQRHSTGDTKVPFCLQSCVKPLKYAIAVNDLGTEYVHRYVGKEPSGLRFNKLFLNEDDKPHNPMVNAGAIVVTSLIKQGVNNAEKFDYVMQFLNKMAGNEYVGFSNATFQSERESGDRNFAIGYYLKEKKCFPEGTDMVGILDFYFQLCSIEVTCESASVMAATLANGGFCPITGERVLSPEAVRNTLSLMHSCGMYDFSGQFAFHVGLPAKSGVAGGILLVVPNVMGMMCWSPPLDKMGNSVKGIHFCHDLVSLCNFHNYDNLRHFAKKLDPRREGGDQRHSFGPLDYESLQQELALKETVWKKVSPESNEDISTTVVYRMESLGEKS
Assay: GLS1 enzymatic activity assay (dual-coupled, Amplex UltraRed/resorufin)
pIC50: −log10 of the molar value.
reported property: pIC50

In the examples that follow, each entry is paired with its recorded pIC50.
O=C(Cc1ccccc1)Nc1ccn(CCC(F)Cn2cc(C(=O)NCc3cccc(C(F)(F)F)n3)nn2)c(=O)c1F (centres unmarked) = > 7.00
O=C(Cc1ccccc1)Nc1ccn(CCCCc2nnc(C(=O)NCc3ccccn3)s2)c(=O)c1 = 6.30 to 7.00
O=C(CC1CCC1)Nc1ccn(CCC(F)Cn2cc(C(=O)NCc3ncccc3F)nn2)c(=O)c1F (centres unmarked) = 6.30 to 7.00
CC(C)OC(=O)Nc1ccn(CCCCn2cc(C(=O)NCc3cccc(OC(F)(F)F)c3)nn2)c(=O)c1 = > 7.00
O=C(CC1CCCC1)Nc1cnn(CCC(F)Cn2cc(C(=O)NCc3cccc(OC(F)(F)F)c3)nn2)c(=O)c1 (centres unmarked) = > 7.00
CC(=O)Nc1ccn(CCCCc2ccc(NC(=O)Cc3ccccc3)nn2)c(=O)n1 = > 7.00
O=C(CC1CCCCO1)Nc1ccn(CCC(F)Cn2cc(C(=O)NCc3cc(Cl)ccc3F)nn2)c(=O)c1 (centres unmarked) = > 7.00

Attention now turns to another entry.
Record O=C(CC1CCC1)Nc1ccn(CCC(F)Cn2cc(C(=O)NCc3ccc(C(F)(F)F)nc3)nn2)c(=O)c1F (centres unmarked) . Reported pIC50: > 7.00

###

Target: GLS1 (purified recombinant human GAC) (Homo sapiens, UniProt O94925)
Assay: GLS1 enzymatic activity assay (dual-coupled, Amplex UltraRed/resorufin)
pIC50: −log10 of the molar value.
I'd be grateful if you could share measured pIC50 for these entries.

Worked cases, pIC50 given:
O=C(Cc1cccc(OC(F)(F)F)c1)Nc1ccc(CCCCn2ccc(NC(=O)CO)nc2=O)nn1 [Example 113] = > 7.00
CC(C)(C)OC(=O)c1cn(CC(F)CCn2ccc(CO)cc2=O)nn1 (stereo not drawn) [Example 408] = < 5.30
O=C(Cc1ccccc1F)Nc1ccn(CCCCn2cc(C(=O)NCc3cccc(OC(F)(F)F)c3)nn2)c(=O)c1 [Example 55] = > 7.00
O=C(CN1CCCC(F)(F)C1)Nc1ccn(CCC(F)Cn2cc(C(=O)NCc3cccc(OC(F)(F)F)c3)nn2)c(=O)c1F (stereo not drawn) [Example 295] = > 7.00
O=C(CC1CCCC1)Nc1ccn(CCC(F)Cn2cc(C(=O)NCc3cccc(OC(F)(F)F)c3)nn2)c(=O)c1F (stereo not drawn) [Example 355] = > 7.00
O=C(CC1CCCC1)Nc1ccn(CCCCn2cc(C(=O)NCc3cccc(OC(F)(F)F)c3)nn2)c(=O)c1 [Example 210] = > 7.00
O=C(CC1CCOCC1)Nc1ccn(CCCCn2cc(C(=O)NCc3cccc(OC(F)(F)F)c3)nn2)c(=O)c1 [Example 48] = > 7.00
O=C(Cc1ccccc1)Nc1ccc(CCCCn2ccc(NC(=O)OC3CCCCC3)nc2=O)nn1 [Example 95] = > 7.00
O=C(CC1CCN(CC(F)F)CC1)Nc1ccn(CCC(F)Cn2cc(C(=O)NCc3cccc(OC(F)(F)F)c3)nn2)c(=O)c1 (stereo not drawn) [Example 242] = > 7.00
CNC(=O)c1cn(CCCCn2ccc(NC(=O)Cc3ccccc3)cc2=O)nn1 [Example 32] = 5.30 to 6.30

Okay, here is my list. What is pIC50 for each of these?
1. O=C(Cc1ccccc1)Nc1ccn(CCC(F)Cn2cc(C(=O)NCc3cc(OC(F)(F)F)ccc3F)nn2)c(=O)c1 (stereo not drawn) [Example 12]
2. O=C(CC1CCCC1)Nc1ccn(CCC(F)Cn2cc(C(=O)NCc3ccc(C(F)(F)F)nc3)nn2)c(=O)c1F (stereo not drawn) [Example 369]
3. CC(C)(C)OC(=O)N[C@H]1CCC[C@H](C(=O)Nc2ccn(CCCCn3cc(C(=O)NCc4cccc(OC(F)(F)F)c4)nn3)c(=O)c2)C1 [Example 211]

Result:
["> 7.00", "> 7.00", "> 7.00"]

Batch lookup, pIC50 per entry.
1. O=C(Cc1ccccn1)Nc1ccn(CCCCc2nnc(C(=O)NCc3ncccc3F)s2)c(=O)c1 [Example 457]
2. COc1ccc(CC(=O)Nc2ccn(CCC(F)Cn3cc(C(=O)NCc4cccc(OC(F)(F)F)c4)nn3)c(=O)c2)cn1 (stereo not drawn) [Example 240]

Result:
1: 5.30 to 6.30; 2: > 7.00

###

Target: GLS1 (purified recombinant human GAC) (Homo sapiens, UniProt O94925)
Sequence (O94925 55-598 isoform O94925-3 limits assumed): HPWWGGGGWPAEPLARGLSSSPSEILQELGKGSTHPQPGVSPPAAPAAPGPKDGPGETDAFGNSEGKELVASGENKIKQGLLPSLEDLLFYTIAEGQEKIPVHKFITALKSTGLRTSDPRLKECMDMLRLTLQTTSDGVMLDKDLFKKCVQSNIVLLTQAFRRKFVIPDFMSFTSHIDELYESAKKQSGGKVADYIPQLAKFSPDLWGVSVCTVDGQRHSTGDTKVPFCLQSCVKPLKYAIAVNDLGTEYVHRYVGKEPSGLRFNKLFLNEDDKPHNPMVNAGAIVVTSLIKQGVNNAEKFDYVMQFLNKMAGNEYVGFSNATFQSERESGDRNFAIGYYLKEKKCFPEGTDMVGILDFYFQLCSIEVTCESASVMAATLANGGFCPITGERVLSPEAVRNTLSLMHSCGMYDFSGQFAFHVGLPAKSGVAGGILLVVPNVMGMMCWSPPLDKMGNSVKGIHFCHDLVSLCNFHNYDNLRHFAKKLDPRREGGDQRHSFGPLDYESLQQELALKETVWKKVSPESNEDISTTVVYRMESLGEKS
Test: GLS1 enzymatic activity assay (dual-coupled, Amplex UltraRed/resorufin)
Assay type: biochemical
pIC50: −log10 of the molar value.
reported property: pIC50

Below, each entry is followed by its recorded pIC50 result.
O=C(CC1CCS(=O)(=O)CC1)Nc1ccn(CCCCn2cc(C(=O)NCc3cccc(OC(F)(F)F)c3)nn2)c(=O)c1 [Example 179] = > 7.00
CC(=O)OC(C(=O)Nc1ccn(CC[C@H](F)Cn2cc(C(=O)NCc3cccc(OC(F)(F)F)c3)nn2)c(=O)c1F)c1ccccc1 (stereo partly drawn) [Example 305] = > 7.00
O=C(Cc1ccccn1)Nc1ccn(CCCCc2nnc(C(=O)NCc3ccccn3)s2)c(=O)c1 [Example 448] = 5.30 to 6.30

For every listed record, write down its pIC50.
1. O=C(CN1CCCC1=O)Nc1ccn(CCCCn2cc(C(=O)NCc3cccc(C(F)(F)F)c3)nn2)c(=O)c1 [Example 155]
2. O=C(CN1CCN(C(=O)CC(F)(F)F)CC1)Nc1ccn(CCC(F)Cn2cc(C(=O)NCc3cccc(OC(F)(F)F)c3)nn2)c(=O)c1F (stereo not drawn) [Example 308]
3. C[C@H](NC(=O)c1ccn(CCCCn2cc(C(=O)NCc3cccc(OC(F)(F)F)c3)nn2)c(=O)c1)C(N)=O [Example 138]
4. CCOC(=O)N1CCC(CC(=O)Nc2ccn(CCC(F)Cn3cc(C(=O)NCc4cccc(OC(F)(F)F)c4)nn3)c(=O)c2)CC1 (stereo not drawn) [Example 281]

Result:
6.30 to 7.00
> 7.00
5.30 to 6.30
> 7.00

For every listed record, write down its pIC50.
1. O=C(Cc1ccccc1)Nc1nnc(CCCCn2ccc(NC(=O)CC3CCCC3)c(F)c2=O)s1 [Example 502]
2. CO[C@H](C(=O)Nc1ccn(CCC(F)Cn2cc(C(=O)NCc3cccc(OC(F)(F)F)c3)nn2)c(=O)c1)c1ccccc1 (stereo partly drawn) [Example 184]
3. O=C(Nc1ccn(CCC(F)Cn2cc(C(=O)NCc3cccc(OC(F)(F)F)c3)nn2)c(=O)c1F)c1ccccc1 (stereo not drawn) [Example 353]
4. CNC(=O)c1ccn(CCCCn2cc(C(=O)NCc3cccc(OC(F)(F)F)c3)nn2)c(=O)c1 [Example 58]
5. C[C@H](C(=O)Nc1ccn(CCC(F)Cn2cc(C(=O)NCc3ccc(C(F)(F)F)nc3)nn2)c(=O)c1F)c1ccccc1 (stereo partly drawn) [Example 368]
6. O=C(Cc1ccccc1)Nc1ccn(CCCCc2nnc(C(=O)NCc3cccc(OC(F)(F)F)c3)s2)c(=O)c1 [Example 438]
7. O=C(Cc1ccccc1)Nc1ccn(CCC(F)Cn2cc(C(=O)NCc3ccc(C(F)(F)F)cn3)nn2)c(=O)c1F (stereo not drawn) [Example 379]
8. Nc1ccn(CCCCn2cc(C(=O)NCc3cccc(OC(F)(F)F)c3)nn2)c(=O)c1 [Example 4]

Result:
1: > 7.00; 2: > 7.00; 3: > 7.00; 4: 5.30 to 6.30; 5: > 7.00; 6: > 7.00; 7: > 7.00; 8: 5.30 to 6.30
